- tested-on: MERTK (UniProt Q12866)
- Sequence (Q12866 whole entry, looked up): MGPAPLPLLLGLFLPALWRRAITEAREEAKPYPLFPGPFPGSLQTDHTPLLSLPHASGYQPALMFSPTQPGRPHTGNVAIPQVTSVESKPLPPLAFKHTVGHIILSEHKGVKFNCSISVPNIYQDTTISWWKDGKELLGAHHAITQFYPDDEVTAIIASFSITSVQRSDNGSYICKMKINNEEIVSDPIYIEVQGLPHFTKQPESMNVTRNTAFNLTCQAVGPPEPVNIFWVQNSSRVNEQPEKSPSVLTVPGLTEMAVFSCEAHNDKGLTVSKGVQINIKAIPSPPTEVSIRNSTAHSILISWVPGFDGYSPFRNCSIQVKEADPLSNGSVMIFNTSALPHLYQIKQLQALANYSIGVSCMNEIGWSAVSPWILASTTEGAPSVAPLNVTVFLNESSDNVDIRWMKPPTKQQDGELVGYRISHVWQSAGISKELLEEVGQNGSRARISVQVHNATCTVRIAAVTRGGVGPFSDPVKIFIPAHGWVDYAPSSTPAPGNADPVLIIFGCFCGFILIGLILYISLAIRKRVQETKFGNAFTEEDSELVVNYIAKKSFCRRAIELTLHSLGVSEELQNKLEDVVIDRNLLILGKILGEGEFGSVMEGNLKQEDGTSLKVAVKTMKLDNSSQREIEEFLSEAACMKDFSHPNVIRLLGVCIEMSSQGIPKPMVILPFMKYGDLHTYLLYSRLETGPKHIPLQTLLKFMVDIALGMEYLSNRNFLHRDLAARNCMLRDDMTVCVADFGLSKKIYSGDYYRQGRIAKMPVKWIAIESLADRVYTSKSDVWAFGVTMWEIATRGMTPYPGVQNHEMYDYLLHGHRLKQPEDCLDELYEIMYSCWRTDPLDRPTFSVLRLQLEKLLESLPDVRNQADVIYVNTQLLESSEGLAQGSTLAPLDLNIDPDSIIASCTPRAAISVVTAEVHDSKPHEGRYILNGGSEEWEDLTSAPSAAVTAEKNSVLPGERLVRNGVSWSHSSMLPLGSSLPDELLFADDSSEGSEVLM
- measurement-description: phosphorylation enrichment, bacterial display (enrichment ratio); higher = better substrate or ligand; peptides without Tyr show the background
Reported phosphorylation enrichment values are given for each entry in this list.

sequence-code | phosphorylation enrichment
ISSLCYELLEE [TRPC6_Y896_R895C] | 0.777
REENGYNTYAS [FGF10_Y161_I156R] | 0.568
ADDSYYTVRSA [ZAP70_Y493_A495V] | 0.784
TLNHQYDFTFD [CSNK1A1_Y292_YF] | 0.6
GPSTPYTKSKC [SMARCC2_Y324_R329C] | 0.396
GRFSGYKSKHG [EPHA3_Y570_C568S] | 0.397
AKNKDYMSFIR [GNE_Y197_I200F] | 0.465
LQPNNYQFCGG [CSF1R_Y969] | 1.6
DEWFLYKMRDI [CPS1_Y879_K875E] | 0.4
SEEVNYATLTF [CLEC12B_Y7_T6N] | 0.905
FQLENCCNGGG [INS_Y108_Y108C_YF] | 0.516
DTNIAYCLHPR [POMT1_Y581_W582C] | 0.695
RELSWYRGRRP [HESX1_Y106] | 0.833

====

- tested-on: Grb2 SH2 (UniProt P62993)
- Sequence (P62993 whole entry, looked up): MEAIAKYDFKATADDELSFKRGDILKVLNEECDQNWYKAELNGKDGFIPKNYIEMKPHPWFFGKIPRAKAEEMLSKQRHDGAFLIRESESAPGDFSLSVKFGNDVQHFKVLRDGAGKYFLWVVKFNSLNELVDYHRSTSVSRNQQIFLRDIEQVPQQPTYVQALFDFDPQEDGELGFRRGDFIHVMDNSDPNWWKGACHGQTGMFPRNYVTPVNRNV
- measurement-description: SH2 binding enrichment of the phosphorylated peptide, bacterial display (enrichment ratio); higher = better substrate or ligand; peptides without Tyr show the background
readout-type: SH2 binding enrichment

sequence-code | readout-type | recorded-measurement
QFPDVYAREEV [CRX_Y67_YF] | SH2 binding enrichment | 0.854
MTFVFYRENLR [NLRP14_Y443_YF] | SH2 binding enrichment | 1.34
TWSSSYRSDRL [CRYBB1_Y131] | SH2 binding enrichment | 0.997
VGSEDYGRDLT [SPTAN1_Y1792] | SH2 binding enrichment | 0.63
RHLQEYQDLLN [GFAP_Y349] | SH2 binding enrichment | 1.71
HFGNNYTDVLQ [MACC1_Y803_R804T_YF] | SH2 binding enrichment | 0.711
GIATGYLVLKE [DNMT3B_Y588] | SH2 binding enrichment | 0.744
FSLIHYAGIVV [MYH7_Y582_D587V] | SH2 binding enrichment | 1.01
PINEPYGDDMD [JUP_Y693] | SH2 binding enrichment | 1.04
EPFEVYRIVPE [IRF8_Y110_K108E_YF] | SH2 binding enrichment | 0.916
LPHVIYCRLWC [SMAD2_Y128_R133C] | SH2 binding enrichment | 1.76
GTCGGYCSVLG [RAB18_Y202_A198T] | SH2 binding enrichment | 0.842
QMRLRYLAAEE [CEP120_Y884] | SH2 binding enrichment | 0.664
NKFTTYLPRLP [C9orf24_Y126_YF] | SH2 binding enrichment | 0.927
HSHTRYERNIE [F2_Y434_R431H] | SH2 binding enrichment | 1.2
IGHGSYAKVLL [PRKCZ_Y263_R260H] | SH2 binding enrichment | 0.868
GLRYGYGGLGG [KRTAP20-2_Y15_V17G] | SH2 binding enrichment | 0.826
PYRQWYESHYA [RPS8_Y113] | SH2 binding enrichment | 1.33
PMFTKYGNSLL [RPGRIP1L_Y196] | SH2 binding enrichment | 0.952
KAIMTYVFSFF [ACTN4_Y260_S262F_YF] | SH2 binding enrichment | 1.26
RIDPDYVGRVR [IGSF9_Y81] | SH2 binding enrichment | 0.758
ECKASCPGKIT [PRSS3_Y232_Y232C] | SH2 binding enrichment | 0.791
YPQARYHWLVL [APTX_Y214_K211Q] | SH2 binding enrichment | 1.27
GCVSKYSGVFS [TUBGCP6_Y1624] | SH2 binding enrichment | 0.83
PADQAYSWFQH [NDST1_Y711_R709Q_YF] | SH2 binding enrichment | 0.648
QAEELYFGKMG [YES1_Y159_W158L] | SH2 binding enrichment | 0.795
LHAAAYWNALA [UQCRC2_Y182_R183W] | SH2 binding enrichment | 1.36
RGKLFYQEVPA [METTL11B_Y76_A72G] | SH2 binding enrichment | 0.956
SEEVNYATLTF [CLEC12B_Y7_T6N] | SH2 binding enrichment | 0.762

====

- Test system: c-Abl (mouse)
- measurement-description: phosphorylation enrichment, bacterial display (enrichment ratio); higher = better substrate or ligand; peptides without Tyr show the background
Label true when phosphorylation enrichment is at or above 0.9; otherwise label false.

sequence-code | label
PFTRNYFVRAV [CYBA_Y87_YF] | false
CERFSYFGMKA [SLC15A2_Y60_YF] | true
LSPPVYLTNEW [NRK_Y885_I880L] | true
KLNNEYLELNY [MME_Y497] | false
GMTRNYIIFIE [BCO2_Y294] | false
FPLELYERVRI [PRKCG_Y312_M317I_YF] | false
FNVLQYVVPKV [EIF3A_Y382_E386K] | true

====

- Test system: c-Abl (mouse)
- measurement-description: phosphorylation enrichment, bacterial display (enrichment ratio); higher = better substrate or ligand; peptides without Tyr show the background
The recorded phosphorylation enrichment of each item maps onto one of these classes: bottom bin: < 0.6; middle bin: ≥ 0.6 and < 0.7; top bin: ≥ 0.7

sequence-code | label
RNFVHYVQGLK [VWF_Y1400_R1399H] | middle bin
WEPFGYAVTRC [PTPRT_Y412] | middle bin
FIGCIYLFLTK [GARS1_Y414_R412C_YF] | top bin
KWKQKYEESQS [MYH6_Y1462_E1457K] | top bin
LTERGYSFTTK [ACTG1_Y198_T203K] | top bin
KVKPIYFHTRG [AR_Y916_Q920R] | middle bin
ESTPLYPMLFG [SCLY_Y280_F276S] | middle bin
SAASGYSDVTD [DTX2_Y425_T421A] | bottom bin
GENTVYAQVFN [LY9_Y603_M602V] | top bin
SAAAIYTVRHP [PMP22_Y117] | middle bin
FARNSYVAGQF [G6PD_Y107_YF] | bottom bin

====

- tested-on: EPHB1 (UniProt P54762)
- Sequence (P54762 whole entry, looked up): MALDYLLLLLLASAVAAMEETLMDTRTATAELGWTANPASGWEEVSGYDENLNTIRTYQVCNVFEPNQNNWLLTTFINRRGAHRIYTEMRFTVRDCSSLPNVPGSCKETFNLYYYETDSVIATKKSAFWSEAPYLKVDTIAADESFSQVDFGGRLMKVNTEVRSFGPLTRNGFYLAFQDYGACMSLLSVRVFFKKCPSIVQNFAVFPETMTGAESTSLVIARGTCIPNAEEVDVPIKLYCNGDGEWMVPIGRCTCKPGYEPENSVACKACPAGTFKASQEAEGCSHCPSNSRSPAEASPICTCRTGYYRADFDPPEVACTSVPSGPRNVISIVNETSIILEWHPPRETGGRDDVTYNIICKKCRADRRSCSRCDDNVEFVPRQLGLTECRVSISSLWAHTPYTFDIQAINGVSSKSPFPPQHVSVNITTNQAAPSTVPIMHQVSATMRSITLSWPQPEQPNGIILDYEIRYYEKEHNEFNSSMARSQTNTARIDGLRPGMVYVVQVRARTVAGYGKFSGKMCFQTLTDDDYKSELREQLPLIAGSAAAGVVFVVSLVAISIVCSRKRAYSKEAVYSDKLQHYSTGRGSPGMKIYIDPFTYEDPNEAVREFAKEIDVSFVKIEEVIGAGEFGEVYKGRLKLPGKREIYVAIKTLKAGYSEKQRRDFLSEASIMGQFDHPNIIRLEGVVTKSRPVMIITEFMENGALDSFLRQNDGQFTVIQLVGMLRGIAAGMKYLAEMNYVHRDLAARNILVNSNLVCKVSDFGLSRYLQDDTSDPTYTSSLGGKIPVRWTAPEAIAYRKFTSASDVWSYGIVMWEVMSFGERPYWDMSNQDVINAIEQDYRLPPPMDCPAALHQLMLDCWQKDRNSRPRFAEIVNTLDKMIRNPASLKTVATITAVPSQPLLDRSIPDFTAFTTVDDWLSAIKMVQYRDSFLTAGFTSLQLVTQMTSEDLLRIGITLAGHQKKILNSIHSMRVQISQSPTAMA
- measurement-description: phosphorylation enrichment, bacterial display (enrichment ratio); higher = better substrate or ligand; peptides without Tyr show the background
Label y when phosphorylation enrichment is at or above 0.5; otherwise label n.

sequence-code | label
ADQLDYIKALN [HPRT1_Y81_L78Q] | y
HNLDYYKMTTN [FGFR3_Y648_K650M] | y
PLQSEYSSIST [ITGB4_Y1760_T1764S] | y
TQTPPYVKKHR [LARP1B_Y457_P462R] | y
LEAVSYSSRYA [RNLS_Y190] | n
GYRVYYTPDSR [PTPRF_Y451] | y
DNLSNYVFQGQ [GRIN2A_Y978_N976S] | y
FRAPGYREVVI [TNS2_Y673_YF] | n
MSNFAYVKREV [SCN1A_Y1694] | n
RRAVKYLQMVG [AVPR2_Y117_C112R] | y
KSEFAYEIFDK [MYOM2_Y1024_L1022F] | y
ALERPYTSKHS [NANS_Y71] | n
ALAAPYVLFPS [CEFIP_Y1332_G1337S_YF] | y
ERIEFYELDKK [PMM2_Y145] | y
KSVITYSPTTG [ITGB3BP_Y32] | n
LFSINYLHFGD [KDM4C_Y201_E206D_YF] | y
SFNNKYGMVAQ [APOB_Y276_K273N_YF] | n
KILGRYFETGS [PAX2_Y72_YF] | n
RPASVYTKRCS [CPT2_Y508] | n
SGDDGYAKDAQ [TENM4_Y1530_K1535Q] | n
DGTGHYLGNAC [GATA5_Y208_C210G] | n
EFENSCIFDIN [GAB1_Y83_Y83C] | n
CTTSHYNYMCN [TP53_Y234_I232S] | y
TLKVGYKEKQR [EPHA3_Y659_T660K] | n
CTTIHKNFMCN [TP53_Y234_Y234K_YF] | n
FQRLQYIKQLG [SAMHD1_Y146_R145Q] | y

====

- tested-on: Fes (UniProt P07332)
- Sequence (P07332 whole entry, looked up): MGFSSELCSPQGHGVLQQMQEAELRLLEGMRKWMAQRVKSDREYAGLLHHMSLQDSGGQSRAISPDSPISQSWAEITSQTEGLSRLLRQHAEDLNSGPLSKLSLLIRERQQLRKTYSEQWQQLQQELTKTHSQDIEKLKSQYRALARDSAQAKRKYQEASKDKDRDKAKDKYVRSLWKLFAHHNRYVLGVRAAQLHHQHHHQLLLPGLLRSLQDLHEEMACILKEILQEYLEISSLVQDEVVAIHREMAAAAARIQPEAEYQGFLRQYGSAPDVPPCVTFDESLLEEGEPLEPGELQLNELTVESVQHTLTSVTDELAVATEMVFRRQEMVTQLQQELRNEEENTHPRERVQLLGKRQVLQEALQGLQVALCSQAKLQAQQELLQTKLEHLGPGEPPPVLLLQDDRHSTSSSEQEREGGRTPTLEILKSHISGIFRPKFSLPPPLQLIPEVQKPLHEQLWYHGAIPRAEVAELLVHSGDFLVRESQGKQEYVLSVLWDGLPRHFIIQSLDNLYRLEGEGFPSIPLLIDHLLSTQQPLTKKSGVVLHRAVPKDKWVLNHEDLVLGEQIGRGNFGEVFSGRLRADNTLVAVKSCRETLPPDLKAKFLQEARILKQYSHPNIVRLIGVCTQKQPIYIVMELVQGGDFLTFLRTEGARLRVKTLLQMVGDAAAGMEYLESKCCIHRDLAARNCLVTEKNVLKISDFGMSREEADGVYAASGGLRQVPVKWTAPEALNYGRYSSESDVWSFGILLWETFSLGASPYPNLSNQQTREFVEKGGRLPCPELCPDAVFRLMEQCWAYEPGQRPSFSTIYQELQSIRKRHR
- measurement-description: phosphorylation enrichment, bacterial display (enrichment ratio); higher = better substrate or ligand; peptides without Tyr show the background
readout-type: phosphorylation enrichment

sequence-code | readout-type | recorded-measurement
PEVRRCVLPLN [RPE65_Y368_Y368C] | phosphorylation enrichment | 1.14
DLAGRYFALKS [CKB_Y173_YF] | phosphorylation enrichment | 0.848
LWPIWYSCHRP [MRGPRX1_Y130_R131S] | phosphorylation enrichment | 1.97
IFSGIYFKPES [L2HGDH_Y102_H98Y_YF] | phosphorylation enrichment | 0.78
IVWDSYTTNKV [GNB3_Y85] | phosphorylation enrichment | 1.2
VGSEDYGRDLT [SPTAN1_Y1792] | phosphorylation enrichment | 1.44
CKPGFYNLKEK [LAMA1_Y490] | phosphorylation enrichment | 0.793
